Experiment: Aqueous solubility of the compound in phosphate buffer by turbidimetric method
Format: physicochemical
READOUT_LABEL: solubility kinetic

For the compound "C[C@]12CC[C@H](O)C[C@@H]1CC[C@@H]1[C@@H]2CC[C@]2(C)[C@@H](C(=O)CO)CC[C@@H]12" , report solubility kinetic.
> 100 µM

Tell me solubility kinetic reported for C[C@]12CC[C@H](O)CC1=CC[C@@H]1[C@@H]2CC[C@]2(C)C(=O)CC[C@@H]12 [PRASTERONE]
> 100 µM

Specify solubility kinetic for "COC(=O)N[C@H]1CC[C@@]2(C)[C@@H](CC[C@@H]3[C@@H]2CC[C@]2(C)C(=O)CC[C@@H]32)C1" and stop.
> 100 µM
